Form field: pIC50 (one value per entry).
- System: KB-3 human carcinoma cell line
- Assay Protocol: MTT colorimetric assay of KB-3 cell viability
- Assay type: cell-based
- Applied Conditions: KB-3 cells, 96 h treatment, triplicate; read-out: IC50, inhibition of KB-3 cell survival assessed by MTT viability assay
pIC50: −log10 of the molar value.
Metric Name: pIC50

INSERT INTO results (compound, metric_name, comparative_sign, observed_result) VALUES
  ('C=C(C)C1CC=C(C)C2=COC(c3ccco3)C21 (centres unmarked) [Compound 10g]', 'pIC50', '=', 5.70),
  ('C=C(C)[C@H]1CC=C(C)[C@@]2(O)[C@@H]1[C@H](c1cccc3ccccc13)O[C@@H]2C(=O)OC [Compound 5e]', 'pIC50', '=', 5.00),
  ('C=C(C)[C@H]1CC=C(C)[C@@]2(O)[C@@H]1[C@H](c1cccc(Cl)c1Cl)O[C@@H]2C(=O)OCC [Compound 5c]', 'pIC50', '=', 5.30),
  ('C=C(C)C1CC=C(C)C2=COC(c3ccccc3Br)C21 (centres unmarked) [Compound 10a]', 'pIC50', '=', 5.40),
  ('C=C(C)[C@H]1CC=C(C)[C@@]2(O)[C@@H]1[C@H](c1ccccc1Br)O[C@@H]2C(=O)OC [Compound 5a.i]', 'pIC50', '=', 5.30),
  ('C=C(C)[C@H]1CC=C(C)[C@@]2(O)[C@@H]1[C@H](c1ccccc1Br)O[C@@H]2C(=O)OCC1CCCC1 [Compound 5a.iii]', 'pIC50', '<', 4.00),
  ('C=C(C)[C@H]1CC=C(C)[C@@]2(O)[C@@H]1[C@H](c1ccc(Cl)cc1Cl)O[C@@H]2C(=O)OCC [Compound 5d]', 'pIC50', '=', 5.52),
  ('C=C(C)[C@H]1CC(=O)C(C)=C2[C@@H](C(=O)OCC)O[C@@H](c3ccc(Cl)cc3Cl)[C@@H]21 [Compound 6d]', 'pIC50', '=', 5.52);

* * *

- Tested on: HOP-92 non-small cell lung cancer cell line
- Assay Protocol: NCI 5-dose testing, HOP-92
- Format: cell-based
- Applied Conditions: 5-dose testing, read-out: LC50 (the source's name)
Metric Name: CC50

INSERT INTO results (molecule, observed_result) VALUES
  ('C=C(C)C1CC=C(C)C2=COC(c3ccccc3F)C21 (stereo not shown) [Compound 10h]', '26.8 µM');

* * *

Form field: pIC50 (one value per entry).
- Test system: KB-3 human carcinoma cell line
- Assay Protocol: MTT colorimetric assay of KB-3 cell viability
- Format: cell-based
- Applied Conditions: KB-3 cells, 96 h treatment, triplicate; read-out: IC50, inhibition of KB-3 cell survival assessed by MTT viability assay
pIC50: −log10 of the molar value.
Metric Name: pIC50

INSERT INTO measurements (molecule, tested_system, comparative_sign, observed_result) VALUES
  ('C=C(C)[C@H]1CC(=O)C(C)=C2[C@@H](C(=O)OCC)O[C@@H](c3cccc(Cl)c3Cl)[C@@H]21', 'KB-3 human carcinoma cell line', '=', 5.30),
  ('C=C(C)[C@H]1CC=C(C)[C@@]2(O)[C@@H]1[C@H](c1ccccc1Br)O[C@@H]2C(=O)OCC1CC1', 'KB-3 human carcinoma cell line', '=', 4.30),
  ('C=C(C)[C@H]1CC=C(C)[C@@]2(O)[C@@H]1[C@H](c1ccccc1Br)O[C@@H]2C(=O)O', 'KB-3 human carcinoma cell line', '<', 4.00),
  ('C=C(C)C1CC=C(C)C2=COC(c3cccc4ccccc34)C21 (stereo not shown) [Compound 10e]', 'KB-3 human carcinoma cell line', '<', 4.00),
  ('C=C(C)[C@H]1CC=C(C)[C@@]2(O)[C@@H]1[C@H](c1cccc(Br)c1)O[C@@H]2C(=O)OCC', 'KB-3 human carcinoma cell line', '=', 5.52),
  ('C=C(C)C1CC=C(C)C2=COC(c3ccccc3F)C21 (stereo not shown) [Compound 10h]', 'KB-3 human carcinoma cell line', '=', 6.00),
  ('C=C(C)[C@H]1CC(=O)C(C)=C2[C@@H](C(=O)OCC)O[C@@H](c3cccc(Br)c3)[C@@H]21', 'KB-3 human carcinoma cell line', '=', 4.52);
